Reference for the values: patent US20260053834A1

Hi there, I'd appreciate the recorded IC50 for every entry that follows.
- assayed-target: AKT2 (Homo sapiens, UniProt P31751)
- Sequence (P31751 whole entry): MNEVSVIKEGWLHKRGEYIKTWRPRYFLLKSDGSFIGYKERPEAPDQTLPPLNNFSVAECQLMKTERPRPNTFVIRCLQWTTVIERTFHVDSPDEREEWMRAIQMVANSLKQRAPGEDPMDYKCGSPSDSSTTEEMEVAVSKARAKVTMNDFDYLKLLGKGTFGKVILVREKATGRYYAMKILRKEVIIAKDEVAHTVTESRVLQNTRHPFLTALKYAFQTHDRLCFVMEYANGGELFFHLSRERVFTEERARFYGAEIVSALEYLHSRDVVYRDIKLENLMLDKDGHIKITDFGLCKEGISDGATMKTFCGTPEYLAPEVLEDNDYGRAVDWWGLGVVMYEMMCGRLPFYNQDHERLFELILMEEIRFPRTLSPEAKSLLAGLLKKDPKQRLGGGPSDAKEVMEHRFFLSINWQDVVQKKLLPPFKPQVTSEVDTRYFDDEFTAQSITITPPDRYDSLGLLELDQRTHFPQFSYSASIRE
- measurement-description: Live cell target engagement by NanoBRET competitive probe displacement, AKT2
- assay-setup: transfected HEK293 cells, 2 h at 37° C., read-out: AKT2 IC50: GeoMean IC50

# compound, assayed-target, value-observed
data = [
    ("Nc1ncccc1-c1nc2ccc(-n3cccn3)nc2n1-c1ccc2c(c1)CC(F)(F)[C@@H]2NC(=O)c1ccc(O)c(C=O)c1", "AKT2 (Homo sapiens, UniProt P31751)", "0.1 to 2 µM"),
    ("Nc1ncccc1-c1nc2ccc(-n3cccn3)nc2n1-c1ccc2c(c1)CC[C@@H]2NCc1cc(C=O)c(O)cc1F", "AKT2 (Homo sapiens, UniProt P31751)", "0.1 to 2 µM"),
    ("Nc1ncccc1-c1nc2ccc(-n3cccn3)nc2n1-c1ccc2c(c1)CC[C@@H]2Nc1n[nH]c2c(C=O)cccc12", "AKT2 (Homo sapiens, UniProt P31751)", "0.1 to 2 µM"),
]

Batch lookup, IC50 per entry.
1. Nc1ncccc1-c1nc2ccc(OC3CC3)nc2n1-c1ccc2c(c1)CC[C@@H]2NC(=O)c1ccc(O)c(C=O)c1
2. Nc1ncccc1-c1nc2ccc(-n3cccn3)nc2n1-c1ccc2c(c1)CC[C@@H]2NC(=O)Cc1ccc(C=O)c(O)c1F
3. Nc1ncccc1-c1nc2cc(F)c(-n3cccn3)nc2n1-c1ccc2c(c1)CC[C@@H]2NC(=O)c1ccc(O)c(C=O)c1
4. Cn1ccnc1Nc1ccc(C(=O)N[C@H]2CCc3cc(-n4c(-c5cccnc5N)nc5ccc(-n6cccn6)nc54)ccc32)cc1C=O
5. COc1cncc(-c2ccc3nc(-c4cccnc4N)n(-c4ccc5c(c4)CC[C@@H]5NC(=O)c4ccc(O)c(C=O)c4)c3n2)n1
6. Nc1ncccc1-c1nc2ccc(-c3ncco3)nc2n1-c1ccc2c(c1)CC[C@@H]2NC(=O)c1ccc(O)c(C=O)c1
7. Nc1ncccc1-c1nc2ccc(-c3ccccc3)nc2n1-c1ccc2c(c1)CC[C@@H]2NC(=O)C1(c2cnc(C=O)c(O)c2)CC1
8. Nc1ncccc1-c1nc2ccc(-c3ccccc3)nc2n1-c1ccc2c(c1)CCC2NCCc1ccc(O)c(C=O)c1 (stereo not shown)

stdout:
≥ 2 µM
0.1 to 2 µM
0.1 to 2 µM
0.1 to 2 µM
0.1 to 2 µM
0.1 to 2 µM
0.1 to 2 µM
≥ 2 µM

Batch lookup, IC50 per entry.
1. Nc1ccn(-c2ccc3nc(-c4cccnc4N)n(-c4ccc5c(c4)CC[C@@H]5NC(=O)c4ccc(O)c(C=O)c4)c3n2)n1
2. Cc1cnc(-c2ccc3nc(-c4cccnc4N)n(-c4ccc5c(c4)CC[C@@H]5NC(=O)c4cc(C=O)c(O)cc4F)c3n2)s1

stdout:
["0.1 to 2 µM", "0.1 to 2 µM"]
